pIC50: −log10 of the molar value.
Record: compiled pIC50 on UniProtKB Q00788 from multiple reports.
RECORDED_ENDPOINT: pIC50

Query block: Please give the measured pIC50 for this compound: O=C(c1ccc(-c2ccccc2C(F)(F)F)cc1)N1Cc2cccn2Cc2ccccc21
Result block: 5.48

1. O=C(Nc1ccc(C(=O)N2Cc3ccccc3Cc3ccccc32)cc1)c1ccccc1C(F)(F)F
2. Cc1ncccc1C(=O)Nc1ccc(C(=O)N2Cc3cccn3Cc3ccccc32)cc1
3. O=C(Nc1ccc(C(=O)N2Cc3ccccc3Cc3ccccc32)cc1)c1ccc(Cl)cc1Cl
Query block: Hey, can you sort those compounds up there by pIC50, smallest first? Enter labels, ranked according to the request.
Result block: 1, 3, 2
(1: 6.61, 3: 7.19, 2: 7.55)

* * *

Record: compiled IC50 on Vasopressin V2 receptor (Rattus norvegicus, UniProt Q00788) from multiple reports.
RECORDED_ENDPOINT: IC50 (µM)

P. Cc1cccc(C(=O)Nc2ccc(C(=O)N3Cc4ccccc4Cc4cc(Cl)ccc43)cc2)c1C
Q. Cc1ccsc1C(=O)Nc1ccc(C(=O)N2Cc3ccccc3Cc3ccccc32)cc1
R. Cc1ccccc1C(=O)N(CN(C)C)c1ccc(C(=O)N2Cc3ccccc3Cc3ccccc32)cc1
Query block: Using the list above, order everything by rising IC50. Enter labels, ranked according to the request.
Result block: P, R, Q

A. Cc1ccccc1C(=O)Nc1ccc(C(=O)N2Cc3cc(Cl)ccc3Oc3ccccc32)cc1
B. O=C(Nc1ccc(C(=O)N2Cc3cccn3Cc3ccccc32)cn1)c1ccccc1Br
C. O=C(Nc1ccc(C(=O)N2Cc3ccccc3Cc3ccccc32)cc1)c1cc(Cl)cc(Cl)c1
D. Cc1ccc(F)cc1C(=O)Nc1ccc(C(=O)N2Cc3ccnn3Cc3ccccc32)cn1
E. Cc1c(F)cccc1C(=O)Nc1ccc(C(=O)N2Cc3ccccc3Cc3ccccc32)cc1
Query block: Hey, can you sort those compounds up there by IC50, smallest first? Enter labels, ranked according to the request.
Result block: B, D, E, C, A
(B: 0.0016 µM, D: 0.011 µM, E: 0.037 µM, C: 0.14 µM, A: 1.7 µM)

I. O=C(Nc1ccc(C(=O)N2Cc3ccccc3-c3ccccc32)cc1)c1ccc(Cl)c(Cl)c1
II. O=C(Nc1ccc(C(=O)N2Cc3ccccc3Cc3ccccc32)cc1)C1CC=CCC1 (centres unmarked)
III. O=C(c1ccc(NCc2ccccc2)nc1)N1Cc2cccn2Cc2ccccc21
IV. COc1cc(Cl)ccc1C(=O)Nc1ccc(C(=O)N2Cc3ccccc3Cc3ccccc32)cc1
V. Cc1ncccc1C(=O)Nc1ccc(C(=O)N2Cc3cccn3Cc3ccccc32)c(Cl)c1
Query block: Put the items in sequence by IC50, from largest down. Enter labels, ranked according to the request.
Result block: I, IV, III, II, V
(I: 1.5 µM, IV: 0.37 µM, III: 0.082 µM, II: 0.039 µM, V: 0.019 µM)

P. Cc1occc1C(=O)Nc1ccc(C(=O)N2Cc3ccccc3Cc3ccccc32)cc1
Q. Cc1ccccc1C(=O)Nc1ccc(C(=O)N2CCc3ccccc3-c3ccccc32)cc1
Query block: // select label with min value of measured IC50 from [ P , Q ] Selection: enter the item's label.
Result block: Q

A. O=C(Nc1ccc(C(=O)N2Cc3ccccc3Cc3ccccc32)cc1)c1cccc(C(F)(F)F)c1
B. Cc1ccc(F)cc1C(=O)Nc1ccc(C(=O)N2Cc3sccc3Cc3ccccc32)cn1
Query block: // select label with min value of measured IC50 from [ A , B ] Selection: enter the item's label.
Result block: B
(B: 0.029 µM, A: 1.2 µM)
